Target: BRAF (Homo sapiens, UniProt P15056)
Sequence (P15056 whole entry): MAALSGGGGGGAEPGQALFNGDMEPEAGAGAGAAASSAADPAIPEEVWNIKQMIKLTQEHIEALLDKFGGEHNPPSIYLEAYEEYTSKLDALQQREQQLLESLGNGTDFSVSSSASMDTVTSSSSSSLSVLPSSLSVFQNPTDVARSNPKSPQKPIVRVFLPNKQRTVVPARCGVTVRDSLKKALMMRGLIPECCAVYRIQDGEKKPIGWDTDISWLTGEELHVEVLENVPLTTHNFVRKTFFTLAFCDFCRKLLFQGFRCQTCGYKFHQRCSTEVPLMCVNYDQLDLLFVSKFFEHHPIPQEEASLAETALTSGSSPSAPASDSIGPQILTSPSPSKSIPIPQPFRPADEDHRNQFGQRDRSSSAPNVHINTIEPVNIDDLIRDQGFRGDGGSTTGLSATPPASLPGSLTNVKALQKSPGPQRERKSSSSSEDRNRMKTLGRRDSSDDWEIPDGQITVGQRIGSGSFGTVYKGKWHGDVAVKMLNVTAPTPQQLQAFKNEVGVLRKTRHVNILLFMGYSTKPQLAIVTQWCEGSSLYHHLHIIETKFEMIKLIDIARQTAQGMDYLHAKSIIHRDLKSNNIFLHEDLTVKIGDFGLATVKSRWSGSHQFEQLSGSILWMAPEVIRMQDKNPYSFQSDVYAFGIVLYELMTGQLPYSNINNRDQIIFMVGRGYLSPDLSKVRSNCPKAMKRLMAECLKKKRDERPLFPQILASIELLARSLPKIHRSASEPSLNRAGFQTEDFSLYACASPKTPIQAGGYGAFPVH
Experiment: In vitro kinase assay (Invitrogen SelectScreen Profiling Service), BRAF
Format: biochemical
Each entry below carries its recorded inhibition at 0.1 µM.
Express your answer in %, writing the number without its unit.

- STRUCTURE SMILES: "CNC(=O)c1cc(Oc2ccc(NC(=O)Nc3ccc(Cl)c(S(F)(F)(F)(F)F)c3)cc2)ccn1"
  inhibition at 0.1 µM [%]: 11
- STRUCTURE SMILES: "CNC(=O)c1cc(Oc2ccc(NC(=O)Nc3cccc(S(F)(F)(F)(F)F)c3)c(F)c2)ccn1"
  inhibition at 0.1 µM [%]: 14
- STRUCTURE SMILES: "CNC(=O)c1cc(Oc2ccc(NC(=O)Nc3cccc(S(F)(F)(F)(F)F)c3)cc2)ccn1"
  inhibition at 0.1 µM [%]: 18

# ---- query compound ----
Query: Give the observed inhibition at 0.1 µM of CNC(=O)c1cc(Oc2ccc(NC(=O)Nc3ccc(Cl)c(S(F)(F)(F)(F)F)c3)c(F)c2)ccn1 for BRAF (Homo sapiens, UniProt P15056).
Response: 8
